biological target: CGRP antigen; assay: cell-based or functional assay
Provide the recorded IC50 for the entries that follow.
Give bare numbers, in µg/mL.

The cases that follow already have their IC50 on record.
binder	endpoint name	assay result
hu74 (antibody, V domains shown, 1F5 HC-4/2B8 LC2-1) VH: QVQLVQSGSELKKPGASVKVSCKASGYTFTDFNMHWVRQAPGQGLEWMGYIYPYNGDVVYNQNFTNRFVLSVDSSSSTAYLQISSLKAEDTAVYYCAREGLGGYWGQGTLVTVSS VL: DIVLTQSPDSLAVSLGERATINCQASQNIDGNTYMNWYQQKPGQPPKVLIYSIFNLESGVPDRFSGSGSGTDFTLTISSLQAEDVAVYYCQQSNDYPYTFGQGTKLEIK	IC50	0.0739
hu50 (antibody, V domains shown, 1F5 HC-2/3E5 LC-1) VH: QVQLVQSGAEVKKPGASVKVSCKASGYTFTDFNMHWVRQAPGQRLEWMGYIYPYNGDVVYNQNFTNRVTLTVDTSSSTAYMELSSLRSEDTAVYYCAREGLGGYWGQGTLVTVSS VL: DIVLTQSPDSLAVSLGERATINCKASQNIDYDGYTYLNWYQQKPGQPPKVLIYSIFNLESGVPDRFSGSGSGTDFTLTISSLQAEDVAVYYCQQSNEVPYTFGQGTKLEIK	IC50	0.0668

# context switch: different binder, same IC50
Given the entry hu235 (antibody, V domains shown, 3C1 HC-4/3C1 LC-2) VH: QVQLVQSGAEVKKPGASVKVSCKASGYTFTGYTMNWVRQAPGQGLEWMGLINPYIGNTHYNQKFKDRVTFTVDRSSSTAYMELSRLRSDDTAVYYCARELDSGFDYWGQGTLVTVSS VL: DVVMTQTPLSLSVTPGQPASISCRSSQNIVHSNGDTYLEWYLQKPGQSPQLLIYKVSNRFSGVPDRFSGSGSGTDFTLKISRVEAEDVGVYYCYQGSHVPWTFGQGTKLEIK , report its measured IC50.
0.0619
